- measurement.protocol: Aqueous humor penetration test
- Type: in vivo, Japanese white rabbits
- condition: Japanese white, aqueous humor, topical, 50 μL per eye; rabbit, 0-3 hr after the instillation of the suspension of Formulation Example 4; read-out: area under drug concentration-time curve (AUC) of amount penetrated to aqueous humor
reported.property: AUC (µM·h)
Answer in µM·h, number only, no unit symbol.

stdin: Name the recorded AUC for CC(C)C[C@H](NC(=S)Nc1ccccc1)C(=O)N[C@H]1CCOC1O (stereo partly shown) [Compound 1] .
stdout: 4.79

----------
- measurement.protocol: Aqueous humor penetration test
- Assay type: in vivo, Japanese white rabbits
- condition: Japanese white, aqueous humor, topical, 50 μL per eye; rabbit, 50 μL instillation of the suspension of Formulation Example 4; read-out: concentration in the aqueous humor, maximum (Cmax)
- Protocol: The suspension of Formulation Example 4 to be mentioned later was instilled by 50 μL into the both eyes of Japanese white rabbits (body weight about 2 kg, purchased from Fukusaki Rabbit Union). At 0.25, 0.5, 1 and 3 hr after the instillation, the rabbits were sacrificed with pentobarbital and aqueous humor was recovered. Using a column switching system HPLC, the concentration of Compound 1 in the aqueous humor was measured.
reported.property: Cmax (nM)
Reply numerically in nM, unit not repeated.

stdin: Given the entry CC(C)C[C@H](NC(=S)Nc1ccccc1)C(=O)N[C@H]1CCOC1O (stereo partly shown) [Compound 1] , report its measured Cmax.
stdout: 2900
